Target: CYP450, 3A4 (Homo sapiens)
Construct: gene CYP3A4
Sequence (P08684 whole entry): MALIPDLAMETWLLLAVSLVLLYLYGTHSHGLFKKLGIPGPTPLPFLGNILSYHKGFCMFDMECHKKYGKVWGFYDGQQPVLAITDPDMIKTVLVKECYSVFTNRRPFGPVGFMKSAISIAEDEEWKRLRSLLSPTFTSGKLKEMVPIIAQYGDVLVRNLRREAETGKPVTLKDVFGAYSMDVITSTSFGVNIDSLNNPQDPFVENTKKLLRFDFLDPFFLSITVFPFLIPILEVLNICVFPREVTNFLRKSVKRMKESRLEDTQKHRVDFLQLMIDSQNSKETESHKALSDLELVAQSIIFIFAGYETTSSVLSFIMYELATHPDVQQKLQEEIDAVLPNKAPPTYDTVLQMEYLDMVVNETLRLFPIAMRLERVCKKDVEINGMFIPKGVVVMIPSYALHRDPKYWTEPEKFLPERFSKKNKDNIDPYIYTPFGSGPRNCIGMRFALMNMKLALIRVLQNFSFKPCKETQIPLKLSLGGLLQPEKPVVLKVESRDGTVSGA
Test: in vitro
Design: MDS Pharma Lead Profiling + CYP450 screen, enzyme assays, per cent inhibition, duplicate
OUTCOME_MEASURE: inhibition at 10 µM
Kindly report the value followed by its unit.

Which value of inhibition at 10 µM has been reported for Cc1ccc2c(c1)c1c(n2CCc2ccc(C)nc2)CCN(C)C1 in the records?
22%

###

Molecular target: Potassium Channel hERG (Homo sapiens)
Construct: gene KCNH2
Sequence (Q12809 whole entry): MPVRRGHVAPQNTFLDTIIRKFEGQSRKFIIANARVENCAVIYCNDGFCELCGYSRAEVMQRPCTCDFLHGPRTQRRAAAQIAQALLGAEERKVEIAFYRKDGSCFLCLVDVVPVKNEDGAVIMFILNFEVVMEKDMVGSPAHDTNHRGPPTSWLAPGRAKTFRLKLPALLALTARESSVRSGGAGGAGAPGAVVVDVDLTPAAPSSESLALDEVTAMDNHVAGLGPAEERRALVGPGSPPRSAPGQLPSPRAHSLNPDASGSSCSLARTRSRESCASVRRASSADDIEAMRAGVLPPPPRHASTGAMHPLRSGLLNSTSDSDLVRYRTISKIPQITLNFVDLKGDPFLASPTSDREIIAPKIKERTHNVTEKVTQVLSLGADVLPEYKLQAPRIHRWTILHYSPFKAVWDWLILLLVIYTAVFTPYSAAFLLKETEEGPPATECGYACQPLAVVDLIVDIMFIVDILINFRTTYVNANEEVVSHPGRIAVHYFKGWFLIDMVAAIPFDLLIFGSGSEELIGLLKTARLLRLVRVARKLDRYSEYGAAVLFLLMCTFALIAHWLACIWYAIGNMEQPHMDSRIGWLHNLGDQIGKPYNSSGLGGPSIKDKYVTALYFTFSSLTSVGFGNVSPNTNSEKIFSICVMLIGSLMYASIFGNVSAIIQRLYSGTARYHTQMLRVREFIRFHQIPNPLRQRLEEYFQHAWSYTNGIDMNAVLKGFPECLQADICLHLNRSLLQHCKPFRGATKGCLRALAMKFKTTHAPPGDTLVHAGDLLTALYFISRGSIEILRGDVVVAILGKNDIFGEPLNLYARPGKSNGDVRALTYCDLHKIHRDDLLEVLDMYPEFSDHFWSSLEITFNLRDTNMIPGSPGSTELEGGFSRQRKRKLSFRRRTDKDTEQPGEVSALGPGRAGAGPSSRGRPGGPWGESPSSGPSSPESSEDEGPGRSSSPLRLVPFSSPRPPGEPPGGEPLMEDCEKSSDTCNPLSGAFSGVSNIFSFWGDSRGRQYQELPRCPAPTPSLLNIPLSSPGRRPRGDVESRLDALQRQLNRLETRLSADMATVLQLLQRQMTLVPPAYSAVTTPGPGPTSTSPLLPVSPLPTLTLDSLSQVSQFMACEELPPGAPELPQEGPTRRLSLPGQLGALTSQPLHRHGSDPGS
Assay: in vitro
Set-up: MDS Pharma Lead Profiling screen, binding assays, per cent inhibition, duplicate
OUTCOME_MEASURE: inhibition at 10 µM (%)
Give just the numeric value; % need not be written.

Could you tell me which inhibition at 10 µM is on file for Cc1ccc2c(c1)c1c(n2CCc2ccc(C)nc2)CCN(C)C1 [Dimebon] ?
45
